tested on: Klebsiella pneumoniae; assay: Antimicrobial activity against multidrug-resistant Klebsiella pneumoniae ATCC 700603 by tube dilution method; assay type: functional
Bridge positions count the residues as written; N and C are the ends. Square brackets hold non-standard residues; d marks the D form. Peptide text beside a SMILES is read from it. ξ: configuration not given here. 2Nal = N[C@@H](Cc1ccc2ccccc2c1)C(=O)O; ξNle = CCCCC(N)C(=O)O; ξDab = NCCC(N)C(=O)O
PROPERTY: MIC

Example molecules with recorded MIC:
MOLECULE	MIC
CCCCC1NC(=O)[C@H](Cc2ccc3ccccc3c2)NC(=O)[C@H](CCCNC(=N)N)NC(=O)[C@H](CC(C)C)NC(=O)CNC(=O)[C@H](Cc2ccc3ccccc3c2)NC(=O)[C@H](CCCNC(=N)N)NC1=O (some centres undefined) (cyclo([2Nal]GLR[2Nal][ξNle]R))	> 128 µM
CC(C)C[C@@H]1NC(=O)CNC(=O)[C@H](Cc2ccc(O)cc2)NC(=O)[C@H](CCCNC(=N)N)NC(=O)[C@H](CC(C)C)NC(=O)[C@H](Cc2ccc3ccccc3c2)NC(=O)[C@H](CCCNC(=N)N)NC1=O (cyclo([2Nal]LRYGLR))	> 128 µM
CC(C)C[C@@H]1NC(=O)CNC(=O)[C@H](Cc2c[nH]c3ccccc23)NC(=O)[C@H](CCCNC(=N)N)NC(=O)[C@H](CC(C)C)NC(=O)[C@H](Cc2c[nH]c3ccccc23)NC(=O)[C@H](CCCNC(=N)N)NC1=O (cyclo(GLRWLRW))	> 128 µM

Consider the record given below.
// query Which measured MIC value corresponds to CC(C)C[C@@H]1NC(=O)C(N)CCNC(=O)[C@H](Cc2ccc3ccccc3c2)NC(=O)[C@H](CCCNC(=N)N)NC(=O)[C@H](CC(C)C)NC(=O)[C@H](Cc2ccc3ccccc3c2)NC(=O)[C@H](CCCNC(=N)N)NC1=O (some centres undefined) (H-[ξDab]LR[2Nal]LR[2Nal]; lactam 1-C) ?
// result 64 µM

* * *

assay: Toxicity in human erythrocytes assessed as hemolysis after 1 hr; assay type: cell-based, Erythrocyte
Square brackets hold non-standard residues; d marks the D form. Peptide text beside a SMILES is read from it. ξ: configuration not given here. 2Nal = N[C@@H](Cc1ccc2ccccc2c1)C(=O)O; ξAoc(2) = CCCCCCC(N)C(=O)O; ξNle = CCCCC(N)C(=O)O
Listing of entries alongside the reported EC50 at 1 hr.

COMPOUND	ENDPOINT VALUE
CCCCC1NC(=O)[C@H](Cc2ccc3ccccc3c2)NC(=O)[C@H](CCCNC(=N)N)NC(=O)[C@H](CC(C)C)NC(=O)CNC(=O)[C@H](Cc2ccc3ccccc3c2)NC(=O)[C@H](CCCNC(=N)N)NC1=O (some centres undefined) (cyclo([2Nal]GLR[2Nal][ξNle]R))	> 150 µM

// query Which measured EC50 at 1 hr value corresponds to CCCCCCC1NC(=O)CNC(=O)[C@H](Cc2ccc3ccccc3c2)NC(=O)[C@H](CCCNC(=N)N)NC(=O)[C@H](CC(C)C)NC(=O)[C@H](Cc2ccc3ccccc3c2)NC(=O)[C@H](CCCNC(=N)N)NC1=O (some centres undefined) (cyclo([2Nal]G[ξAoc(2)]R[2Nal]LR)) ?
// result 55 µM

// query Which measured EC50 at 1 hr value corresponds to CC(C)C[C@@H]1NC(=O)CNC(=O)[C@H](Cc2c[nH]c3ccccc23)NC(=O)[C@H](CCCNC(=N)N)NC(=O)[C@H](CC(C)C)NC(=O)[C@H](Cc2c[nH]c3ccccc23)NC(=O)[C@H](CCCNC(=N)N)NC1=O (cyclo(GLRWLRW)) ?
// result > 150 µM

// query Which measured EC50 at 1 hr value corresponds to CC(C)C[C@@H]1NC(=O)CNC(=O)[C@H](Cc2ccc3ccccc3c2)NC(=O)[C@H](CCCNC(=N)N)NC(=O)[C@H](CC(C)C)NC(=O)[C@H](Cc2ccc3ccccc3c2)NC(=O)[C@H](CCCCN)NC1=O (cyclo([2Nal]GLK[2Nal]LR)) ?
// result > 150 µM

Data origin, for the record: ChEMBL document CHEMBL4000149
